Origin of measurements: the supplement of paper PMC10567573

B1: C9orf9 (parent)
chain: LTKASLKPRGCSKPPWRPPGGKL

variants of: B1; test: protein stability index of a GFP-peptide fusion (GPS, HEK-293T) (PSI 1-6); higher = more stable; conditions: c terminus: native;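 also: lentivirally expressed fusions sorted by FACS into six bins by GFP to DsRed ratio, PSI derived from sequencing read proportions per bin multiplied by bin number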
Decide by protein stability index: equal to or exceeding 3 means criterion met, less means criterion not met.

> print(dat)
                         residues  qualitative.label
1  LTKASLKPRGCSKPPWRPPGWKL [G21W]  criterion not met
2  LTKASLKPRHCSKPPWRPPGGKL [G10H]  criterion not met
3  LTKASLKPRGCSKPLWRPPGGKL [P15L]      criterion met

Does the variant LCKASLKPRGCSKPPWRPPGGKL [T2C] have recorded protein stability index that is 3 or more?
criterion not met

Check the entry LTKASYKPRGCSKPPWRPPGGKL [L6Y] : does protein stability index equal or exceed 3?
criterion not met

Decide: protein stability index of LTKASLKPRGCSKPPWRPEGGKL [P19E] >= 3?
criterion met

Exam item: decide whether the reported protein stability index for LTKASLKPRGCSKPPWRPPGGVL [K22V] is at least 3.
criterion met

Check this variant for protein stability index at or above 3: LTKASLKPRDCSKPPWRPPGGKL [G10D]
criterion not met
